Target: human epidermal growth factor receptor 2 (HER2), membrane-bound on cells (human, UniProt P04626 23-1255)
Experiment: cell-based or functional assay
Form field: Maximal MFI, fab-CypHer5E internalization, AU565 (one value per entry).
// units = MFI; emit number, no label

Example entries begin here.
HuMab 169 (antibody, V domains shown, also called TH1014-169; PC1014-169) VH: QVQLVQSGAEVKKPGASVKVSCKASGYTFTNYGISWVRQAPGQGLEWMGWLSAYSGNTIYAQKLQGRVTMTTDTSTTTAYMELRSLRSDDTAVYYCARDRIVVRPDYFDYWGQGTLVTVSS VL: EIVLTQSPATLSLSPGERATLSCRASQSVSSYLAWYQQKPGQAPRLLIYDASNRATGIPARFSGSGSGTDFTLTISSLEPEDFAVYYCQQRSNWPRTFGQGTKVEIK | 38800
HuMab 159 (antibody, V domains shown, also called TH1014-159; PC1014-159) VH: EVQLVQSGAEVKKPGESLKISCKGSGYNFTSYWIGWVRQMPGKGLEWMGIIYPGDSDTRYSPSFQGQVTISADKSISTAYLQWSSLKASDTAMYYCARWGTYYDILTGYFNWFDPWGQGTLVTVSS VL: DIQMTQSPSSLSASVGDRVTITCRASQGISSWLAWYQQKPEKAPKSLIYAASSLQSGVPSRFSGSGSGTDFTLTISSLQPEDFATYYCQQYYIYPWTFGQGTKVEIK | 92400

Could you now consider this next binder?
Exercise: What does the record list as Maximal MFI, fab-CypHer5E internalization, AU565 for HuMab 059 (antibody, V domains shown, also called PC1014-059) VH: QVQLVQSGAEVKKPGASVRVPCKASGYTFTRYGISWVRQAPGQGLEWMGWISAYNGKTYYAQKLQGRVTMTTDTSTSTAYMELRSLRSDDTAVYYCARSPLLWFEELYFDYWGQGTLVTVSS VL: EIVLTQSPGTLSLSPGERATLSCRASQSVSSTYLAWYQQKPGQAPRLLIYGASSRATGIPDRFSGSGSGTDFTLTISRLEPEDFAVYYCQQYGTSLFTFGPGTKVDIK ?
Solution: 77100
